Molecular target: EGFR L858R/T790M/C797S (BaF3-LTC cells) (Homo sapiens, UniProt P00533, C797S/L858R/T790M)
Construct: expressed in transfected cells; host or cells: BaF3
Sequence (P00533 25-1210 T790M/C797S/L858R): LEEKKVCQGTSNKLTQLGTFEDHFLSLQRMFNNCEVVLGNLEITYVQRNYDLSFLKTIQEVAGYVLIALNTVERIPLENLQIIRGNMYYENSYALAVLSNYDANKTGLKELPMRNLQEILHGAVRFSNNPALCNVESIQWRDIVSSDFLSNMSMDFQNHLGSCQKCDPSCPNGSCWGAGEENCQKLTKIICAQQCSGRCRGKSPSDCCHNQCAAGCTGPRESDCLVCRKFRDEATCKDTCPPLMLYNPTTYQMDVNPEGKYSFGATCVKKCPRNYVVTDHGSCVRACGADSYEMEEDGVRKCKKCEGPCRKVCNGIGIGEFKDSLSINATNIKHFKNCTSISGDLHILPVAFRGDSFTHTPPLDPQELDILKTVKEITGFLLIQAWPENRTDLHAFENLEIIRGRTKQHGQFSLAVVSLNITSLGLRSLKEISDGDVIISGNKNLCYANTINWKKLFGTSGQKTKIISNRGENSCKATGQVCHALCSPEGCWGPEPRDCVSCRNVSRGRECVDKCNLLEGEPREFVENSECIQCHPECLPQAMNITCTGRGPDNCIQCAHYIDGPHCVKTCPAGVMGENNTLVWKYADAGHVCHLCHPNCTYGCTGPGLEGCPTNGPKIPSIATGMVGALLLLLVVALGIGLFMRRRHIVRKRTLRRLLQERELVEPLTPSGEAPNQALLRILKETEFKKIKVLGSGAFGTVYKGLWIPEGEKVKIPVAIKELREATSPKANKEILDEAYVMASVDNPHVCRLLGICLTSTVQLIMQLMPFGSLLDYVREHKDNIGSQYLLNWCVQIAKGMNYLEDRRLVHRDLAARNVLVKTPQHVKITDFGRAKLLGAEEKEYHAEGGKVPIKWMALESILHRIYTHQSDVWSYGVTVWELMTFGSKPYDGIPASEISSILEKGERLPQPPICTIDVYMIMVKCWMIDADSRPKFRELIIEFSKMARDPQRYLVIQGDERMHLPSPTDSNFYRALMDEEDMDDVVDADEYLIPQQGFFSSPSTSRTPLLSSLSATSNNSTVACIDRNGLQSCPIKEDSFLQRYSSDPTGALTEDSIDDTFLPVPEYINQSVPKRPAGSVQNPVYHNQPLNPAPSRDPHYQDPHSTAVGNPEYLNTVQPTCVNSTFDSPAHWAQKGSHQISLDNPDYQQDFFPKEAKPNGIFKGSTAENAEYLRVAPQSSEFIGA
Assay: EGFR degradation HTRF assay, BaF3-LTC cells
Assay type: cell-based
Settings: BaF3-LTC cells; EGFR degradation, IC50 (DC50) from curve fit; read-out: DC50(nM) BaF3-LTC
DC50 under 8 nM gets 1, anything at or over 8 nM gets -1.

>  <molecule>
CCc1ccc2c(P(C)(C)=O)c(Nc3nc(Nc4cc(CC)c(N5CCC(N6CCN(CCc7cc(C)cc8c7oc(=O)n8C7CCC(=O)NC7=O)CC6)CC5)cc4OC)ncc3Br)ccc2n1 (stereo not shown)

>  <experimental.target>
EGFR L858R/T790M/C797S (BaF3-LTC cells) (Homo sapiens, UniProt P00533, C797S/L858R/T790M)

>  <assigned.category>
1

$$$$
>  <molecule>
CCc1ccc2c(P(C)(C)=O)c(Nc3nc(Nc4cc(CC)c(N5CCC(N6CCN(CC7CN(c8cccc9c8oc(=O)n9C8CCC(=O)NC8=O)C7)CC6)CC5)cc4OC)ncc3Br)ccc2n1 (stereo not shown)

>  <experimental.target>
EGFR L858R/T790M/C797S (BaF3-LTC cells) (Homo sapiens, UniProt P00533, C797S/L858R/T790M)

>  <assigned.category>
1

$$$$
>  <molecule>
CCOc1cc(N2CCC(N3CCN(CC4CCN(c5cccc6c5oc(=O)n6C5CCC(=O)NC5=O)CC4)CC3)CC2)c(CC)cc1Nc1ncc(Br)c(Nc2ccc3nc(CC)ccc3c2P(C)(C)=O)n1 (stereo not shown)

>  <experimental.target>
EGFR L858R/T790M/C797S (BaF3-LTC cells) (Homo sapiens, UniProt P00533, C797S/L858R/T790M)

>  <assigned.category>
1

$$$$
>  <molecule>
CCOc1cc(N2CCC(N3CCN(CCc4cc5oc(=O)n(C6CCC(=O)NC6=O)c5cc4C(F)(F)F)CC3)CC2)c(CC)cc1Nc1ncc(Br)c(Nc2ccc3nc(CC)ccc3c2P(C)(C)=O)n1 (stereo not shown)

>  <experimental.target>
EGFR L858R/T790M/C797S (BaF3-LTC cells) (Homo sapiens, UniProt P00533, C797S/L858R/T790M)

>  <assigned.category>
-1

$$$$
>  <molecule>
CCc1cc(Nc2ncc(Br)c(Nc3ccc4nc(C)ccc4c3P(C)(C)=O)n2)c(OC)cc1N1CCC(N2CCN(CC3CN(c4ccc5c(c4)oc(=O)n5C4CCC(=O)NC4=O)C3)CC2)CC1 (stereo not shown)

>  <experimental.target>
EGFR L858R/T790M/C797S (BaF3-LTC cells) (Homo sapiens, UniProt P00533, C797S/L858R/T790M)

>  <assigned.category>
1

$$$$
>  <molecule>
CCOc1cc(N2CCC(N3CCN(CCc4c(F)cc5c(oc(=O)n5C5CCC(=O)NC5=O)c4F)CC3)CC2)c(CC)cc1Nc1ncc(Br)c(Nc2ccc3c(=O)n(CC)ncc3c2P(C)(C)=O)n1 (stereo not shown)

>  <experimental.target>
EGFR L858R/T790M/C797S (BaF3-LTC cells) (Homo sapiens, UniProt P00533, C797S/L858R/T790M)

>  <assigned.category>
1

$$$$
>  <molecule>
CCc1cc(Nc2ncc(Br)c(Nc3ccc4nc(C)ccc4c3P(C)(C)=O)n2)c(OC)cc1N1CCC(N2CCN(CCc3ccc4c(c3)oc(=O)n4C3CCC(=O)NC3=O)CC2)CC1 (stereo not shown)

>  <experimental.target>
EGFR L858R/T790M/C797S (BaF3-LTC cells) (Homo sapiens, UniProt P00533, C797S/L858R/T790M)

>  <assigned.category>
1

$$$$
>  <molecule>
CCOc1cc(N2CCC(N3CCN(CCCc4cc(F)cc5c4oc(=O)n5C4CCC(=O)NC4=O)CC3)CC2)c(CC)cc1Nc1ncc(Br)c(Nc2cc(F)c3nc(CC)ccc3c2P(C)(C)=O)n1 (stereo not shown)

>  <experimental.target>
EGFR L858R/T790M/C797S (BaF3-LTC cells) (Homo sapiens, UniProt P00533, C797S/L858R/T790M)

>  <assigned.category>
-1

$$$$
>  <molecule>
CCOc1cc(N2CCC(N3CCN(CC4CN(c5cccc6c5oc(=O)n6C5CCC(=O)NC5=O)C4)CC3)CC2)c(CC)cc1Nc1ncc(Br)c(Nc2ccc3c(=O)n(CC)ncc3c2P(C)(C)=O)n1 (stereo not shown)

>  <experimental.target>
EGFR L858R/T790M/C797S (BaF3-LTC cells) (Homo sapiens, UniProt P00533, C797S/L858R/T790M)

>  <assigned.category>
-1

$$$$
>  <molecule>
CCOc1cc(N2CCC(N3CCN(CCc4cc(F)c(F)c5c4n(CC)c(=O)n5C4CCC(=O)NC4=O)CC3)CC2)c(CC)cc1Nc1ncc(Br)c(Nc2ccc3nc(CC)ccc3c2P(C)(C)=O)n1 (stereo not shown)

>  <experimental.target>
EGFR L858R/T790M/C797S (BaF3-LTC cells) (Homo sapiens, UniProt P00533, C797S/L858R/T790M)

>  <assigned.category>
-1

$$$$
